- Measurement Description: adipocyte viability effects, profiling panel, cell-based, 3T3-L1 adipocytes, calcein-AM fluorescence, 48 h, basal (AID 1163); also: test concentration not given here
- Assay Context: 3T3-L1 adipocytes viability, higher = more signal
Labelling field: enter 1 if recorded z-score is less than 0.5. Enter -1 if it equals or exceeds that cut-off.

The examples below pair each entry with its known result.
INSERT INTO results (compound, class_name) VALUES
  ('Cc1ccc(C(C)C)n1C(=O)OC(C)(C)C', 1),
  ('CCOC(=O)[C@H](Cc1ccccc1)NC(=O)CCC1CC(OC(=O)NCc2cccc3ccccc23)CC2(CCCC(COC(=O)NCC3CCCCC3)O2)O1 (some centres not stated)', 1),
  ('CCC1=NOC(CCC2CC(OC(=O)NCc3cccc4c3OCO4)CC3(CCCC(COC(=O)NCCc4ccc(Cl)cc4)O3)O2)C1 (configuration not stated)', 1),
  ('CC(C)=CCCC(C)=CCON=C1C[C@@H](O)[C@@H](O)[C@@H]2[C@@H]3C(=O)N(c4cccc(Oc5ccccc5)c4)C(=O)[C@@H]3CC[C@H]12', 1),
  ('CCN1C(=O)[C@H]2[C@H]3[C@H](O)[C@H](O)CC(=NOC[C@@H](O)COCc4ccco4)[C@H]3CC[C@H]2C1=O', 1),
  ('COc1ccc(O[C@H]2C=C[C@@H](c3ccccc3)O[C@@H]2COC(=O)CCC(C)=NOC[C@@H](O)COCc2ccco2)cc1', -1);

Kindly consider the entry below.
(Q) # strict comparison: is reported z-score < 0.5? input = O=C1[C@H]2[C@H]3[C@H](O)[C@H](O)CC(=NO[C@@H]4O[C@H](CO)[C@@H](O)[C@H](O)[C@H]4O)[C@H]3CC[C@H]2C(=O)N1c1ccc(F)cc1F
(A) -1

###

Entries annotated with measured composite z-score
- Assayed System: Pro-neuregulin-1, membrane-bound isoform (Homo sapiens)
- Measurement Description: NRG1 binders on small-molecule microarrays, primary screen, psychiatric disease protein project, biochemical, small-molecule microarray, fluorescence 635/667 (AID 1075);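 also: score combines 667 nm spot fluorescence with signal to noise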
- Assay Context: NRG1 binding, 635 nm fluorescence, higher = more signal
Write the number on its own, no unit after it.

INSERT INTO measurements (molecule, data_value) VALUES
  ('CC(=O)OC[C@H]1O[C@H](CCON=C(C)CCN2CCCc3nc(C)c(C)cc32)C=C[C@@H]1OC(C)=O', 0.237),
  ('O=C1[C@H]2[C@H]3[C@H](O)[C@H](O)CC(=NO[C@@H]4O[C@H](CO)[C@@H](O)[C@H](O)[C@H]4O)[C@@H]3CC[C@H]2C(=O)N1C1CCCCC1', 0.132),
  ('COC(=O)[C@@H]1CC[C@H](C)[C@@H](c2ccc(Br)cc2)N1C[C@@H](O)CN=[N+]=[N-]', 0.117),
  ('COc1cccc([C@H](O)Cn2cc(-c3ccc(CON=C(C)C)cc3)nn2)c1', -0.486);

(Q) // returns reported composite z-score for input CCN1C(=O)[C@H]2[C@H]3[C@H](O)[C@H](O)CC(=NOC(C)CN4CCCc5nc(C)c(C)cc54)[C@@H]3CC[C@H]2C1=O (some centres not stated)
(A) -0.0318

(Q) // returns reported composite z-score for input CCc1cc2c(nc1CC)CCN(CCC(C)=NO[C@@H]1O[C@H](COC(C)=O)[C@@H](OC(C)=O)[C@H](OC(C)=O)[C@H]1OC(C)=O)C2
(A) 0.408

(Q) // returns reported composite z-score for input CCOC(=O)[C@H](CC(C)C)NC(=O)CCC1CC(OC(=O)NCc2ccc3c(c2)OCO3)CC2(CCCC(COC(=O)NCc3ccccc3)O2)O1 (some centres not stated)
(A) 0.929

Hello, the source for this data is PubChem BioAssay, in case you need it.
